TARGET OF ASSAY: fusion protein PRP
EXPERIMENTAL ENDPOINT: relative cleavage efficiency

PROTEIN	EXPERIMENTAL ENDPOINT	OBS VALUE
OmpT protease variant OmpT D97K (protein) STETLSFTPDNINADISLGTLSGKTKERVYLAEEGGRKVSQLDWKFNNAAIIKGAINWDLMPQISIGAAGWTTLGSRGGNMVDQDWMDSSNPGTWTKESRHPDTQLNYANEFDLNIKGWLLNEPNYRLGLMAGYQESRYSFTARGGSYIYSSEEGFRDDIGSFPNGERAIGYKQRFKMPYIGLTGSYRYEDFELGGTFKYSGWVESSDNDEHYDPGKRITYRSKVKDQNYYSVAVNAGYYVTPNAKVYVEGAWNRVTNKKGNTSLYDHNNNTSDYSKNGAGIENYNFITTAGLKYTF	relative cleavage efficiency	less than 3.0%
OmpT protease variant OmpT D97Y (protein) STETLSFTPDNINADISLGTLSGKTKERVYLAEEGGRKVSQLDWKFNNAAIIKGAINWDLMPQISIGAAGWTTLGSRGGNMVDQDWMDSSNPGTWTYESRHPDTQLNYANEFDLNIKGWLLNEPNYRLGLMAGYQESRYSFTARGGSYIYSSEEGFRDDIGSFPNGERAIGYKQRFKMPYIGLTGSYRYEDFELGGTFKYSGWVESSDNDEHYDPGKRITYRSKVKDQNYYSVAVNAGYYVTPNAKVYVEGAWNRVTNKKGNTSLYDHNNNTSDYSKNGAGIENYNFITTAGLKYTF	relative cleavage efficiency	less than 3.0%
OmpT protease variant OmpT D97I (protein) STETLSFTPDNINADISLGTLSGKTKERVYLAEEGGRKVSQLDWKFNNAAIIKGAINWDLMPQISIGAAGWTTLGSRGGNMVDQDWMDSSNPGTWTIESRHPDTQLNYANEFDLNIKGWLLNEPNYRLGLMAGYQESRYSFTARGGSYIYSSEEGFRDDIGSFPNGERAIGYKQRFKMPYIGLTGSYRYEDFELGGTFKYSGWVESSDNDEHYDPGKRITYRSKVKDQNYYSVAVNAGYYVTPNAKVYVEGAWNRVTNKKGNTSLYDHNNNTSDYSKNGAGIENYNFITTAGLKYTF	relative cleavage efficiency	less than 3.0%
